# Test system: Collinsella aerofaciens
# Test description: growth AUC relative to DMSO control (median of replicates) (fraction); higher = more growth (less inhibition), active = hit call of the paper
# Condition: 20 µM; 24 h
Parameter measured: growth AUC
Number, no unit, nothing else.

The examples below pair each entry with its known result.
>>> df
                                   compound    target_or_test_system  parameter_measured  recorded_measurement
0  COCC(=O)N(c1c(C)cccc1C)C(C)C(=O)OC (stereo not drawn)  Collinsella aerofaciens          growth AUC                  1.02
1  CCOP(=O)(N=C1SCC(C)S1)OCC (stereo not drawn)  Collinsella aerofaciens          growth AUC                     1

// query Suppose we examine the compound CC(C)N1C(=O)N(c2ccccc2)CSC1=NC(C)(C)C ; what growth AUC value has been reported?
// result 0.971

----------
The reader will find reported growth AUC values listed item by item below.
# System: Parabacteroides distasonis
# Test description: growth AUC relative to DMSO control (median of replicates) (fraction); higher = more growth (less inhibition), active = hit call of the paper
# Condition: 20 µM; 24 h
Number, no unit, nothing else.

The examples below pair each entry with its known result.
>>> df
                                   molecule  recorded_measurement
0  C[C@@H](Oc1ccc(Oc2ccc(C(F)(F)F)cn2)cc1)C(=O)O                  1.01
1  COC(=O)C(C)N(C(=O)c1ccco1)c1c(C)cccc1C (stereo not given)                     1
2       COc1cc(OC)nc(Sc2cccc(Cl)c2C(=O)O)n1                 0.906
3              CNC(=O)N(C)c1nnc(C(C)(C)C)s1                 0.973

Could you now look at the following molecule, please?
// query Suppose we examine the molecule ClC(Cl)=C(c1ccc(Cl)cc1)c1ccc(Cl)cc1 ; what growth AUC value has been reported?
// result 0.985

----------
# Tested on: Odoribacter splanchnicus
# Test description: growth AUC relative to DMSO control (median of replicates) (fraction); higher = more growth (less inhibition), active = hit call of the paper;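 active = AUC reduced over 20% with Padj below 0.05 in at least 2 of 3 replicates; inactive = otherwise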
# Condition: 20 µM; 24 h
# output must be one of 1 = active, -1 = inactive

Example entries and their recorded answers appear below.
>>> df
                                   compound  class
0  CC1(C)C(/C=C(\Cl)c2ccc(Cl)cc2)C1C(=O)OC(C#N)c1ccc(F)c(Oc2ccccc2)c1 (stereo unspecified)     -1
1  COC(=O)c1cc(Oc2ccc(Cl)cc2Cl)ccc1[N+](=O)[O-]     -1
2        CC1=C(C(=O)Nc2ccccc2)S(=O)(=O)CCO1     -1
3             COP(=S)(OC)Oc1c(Cl)cc(C)cc1Cl     -1
4                     O=C(O)c1ccc(=O)[nH]c1     -1

// query Per the assay record, what outcome was assigned to CCOC(=O)C(SP(=S)(OC)OC)c1ccccc1 (stereo unspecified) ?
// result -1

// query Per the assay record, what outcome was assigned to CCCN(CCC)c1c([N+](=O)[O-])cc(S(C)(=O)=O)cc1[N+](=O)[O-] ?
// result -1

// query Per the assay record, what outcome was assigned to CCS(=O)(=O)Cc1ccccc1OC(=O)NC ?
// result -1

// query Per the assay record, what outcome was assigned to CCOP(=O)(SC(C)CC)N1CCSC1=O (stereo unspecified) ?
// result -1

// query Per the assay record, what outcome was assigned to O=C(OC1CCCCC1)c1ccccc1C(=O)OC1CCCCC1 ?
// result -1

// query Per the assay record, what outcome was assigned to Nc1cccc(Cl)c1Cl ?
// result -1

// query Per the assay record, what outcome was assigned to CCCSP(=S)(OCC)Oc1ccc(Cl)cc1Cl (stereo unspecified) ?
// result -1

// query Per the assay record, what outcome was assigned to CC(C)(C)C(O)C(Oc1ccc(Cl)cc1)n1cncn1 (stereo unspecified) ?
// result -1

// query Per the assay record, what outcome was assigned to c1ccc2c(c1)-c1cccc3cccc-2c13 ?
// result -1

// query Per the assay record, what outcome was assigned to CCCOc1nn(C(=O)[N-]S(=O)(=O)c2ccccc2C(=O)OC)c(=O)n1C.[Na+] ?
// result -1

----------
# System: Bifidobacterium longum subsp. longum
# Test description: growth AUC relative to DMSO control (median of replicates) (fraction); higher = more growth (less inhibition), active = hit call of the paper
# Condition: 20 µM; 24 h
Decide by growth AUC: equal to or exceeding 1 means satisfied, less means not satisfied.

In [3]: df
Out[3]:
                                   compound                 target_or_test_system          class
0    CCOC(=O)/C=C(C)/C=C/C[C@@H](C)CCCC(C)C  Bifidobacterium longum subsp. longum  not satisfied
1              N#Cc1c[nH]cc1-c1cccc(Cl)c1Cl  Bifidobacterium longum subsp. longum      satisfied
2  O=c1oc2ccccc2c(O)c1C1CCCc2ccccc21 (stereo not drawn)  Bifidobacterium longum subsp. longum      satisfied

// switching to the query compound
// query Given CCOP(=S)(OCC)Oc1ccc(=O)n(-c2ccccc2)n1 , state whether its growth AUC is at least 1.
// result satisfied

----------
# Tested on: Roseburia intestinalis
# Test description: growth AUC relative to DMSO control (median of replicates) (fraction); higher = more growth (less inhibition), active = hit call of the paper
# Condition: 20 µM; 24 h
Decide by growth AUC: equal to or exceeding 1 means true (1), less means false (0).

                                   compound     class
0  O=C(NC(=O)c1c(F)cccc1F)Nc1ccc(Oc2ccc(C(F)(F)F)cc2Cl)cc1F  true (1)

// query Given CCOP(=O)(OCC)OCC , state whether its growth AUC is at least 1.
// result true (1)

// query Given N#Cc1c(Cl)cccc1Cl , state whether its growth AUC is at least 1.
// result true (1)

// query Given CC(C)(C)N(NC(=O)c1ccc(Cl)cc1)C(=O)c1ccccc1 , state whether its growth AUC is at least 1.
// result true (1)

// query Given CON(C)C(=O)Nc1ccc(Cl)c(Cl)c1 , state whether its growth AUC is at least 1.
// result false (0)

// query Given CC1(C)[C@H](C(=O)O[C@H](C#N)c2cccc(Oc3ccccc3)c2)[C@@H]1C=C(Br)Br , state whether its growth AUC is at least 1.
// result false (0)

// query Given O=C(O)C(F)(F)C(F)(F)C(F)(F)C(F)(F)C(F)(F)C(F)(F)C(F)(F)C(F)(F)C(F)(F)F , state whether its growth AUC is at least 1.
// result false (0)

----------
# Tested on: Escherichia coli IAI1
# Test description: growth AUC relative to DMSO control (median of replicates) (fraction); higher = more growth (less inhibition), active = hit call of the paper
# Condition: 20 µM; 24 h
The reader will find reported growth AUC values listed item by item below.

The examples below pair each entry with its known result.
>>> print(df.to_string())
                                   compound  recorded_measurement
0  N#CC(CCc1ccc(Cl)cc1)(Cn1cncn1)c1ccccc1 (stereo unspecified)       1.02 (inactive)
1                        O=C(O)c1ccc(Cl)nc1      0.967 (inactive)

// query So what growth AUC did CCCCN(CC)C(=O)SCCC get with Escherichia coli IAI1?
// result 1.01 (inactive)

// query So what growth AUC did CCSCCSP(=S)(OC)OC get with Escherichia coli IAI1?
// result 1 (inactive)

// query So what growth AUC did CCOP(=O)(Sc1ccccc1)Sc1ccccc1 get with Escherichia coli IAI1?
// result 0.982 (inactive)

// query So what growth AUC did c1nc[n]([Sn]([CH]2CCCCC2)([CH]2CCCCC2)[CH]2CCCCC2)n1 get with Escherichia coli IAI1?
// result 1.06 (inactive)

----------
# System: Eubacterium rectale
# Test description: growth AUC relative to DMSO control (median of replicates) (fraction); higher = more growth (less inhibition), active = hit call of the paper
# Condition: 20 µM; 24 h
The reader will find reported growth AUC values listed item by item below.
Number, no unit, nothing else.

The examples below pair each entry with its known result.
>>> df
                           compound  recorded_measurement
0                            CN=C=S                 0.972
1  CCOP(=S)(OCC)SCS(=O)(=O)C(C)(C)C                  1.08
2      OCC(O)CCl (stereo not drawn)                     1

Could you now look at the following compound, please?
// query Suppose we examine the compound COC(=O)C(Cl)Cl ; what growth AUC value has been reported?
// result 1

Hello, the source for this data is the supplement of paper PMC12669032, in case you need it.
